- System: tyrosinase activity in S91 mouse melanoma cells
- PROCEDURE DETAILS: Induction of tyrosinase activity in S91 cells
- CONDITION SET: 1 mM (Table 16)
Kindly supply the reported Fold Induction of Tyrosinase Relative to Controls values for the records listed here.
Your answer is read as X, so omit the unit and give the number.

In: Quick one: give measured Fold Induction of Tyrosinase Relative to Controls for OCC1(CO)CC2C=CC1C2 (stereo not shown)
Out: 3.6

In: Quick one: give measured Fold Induction of Tyrosinase Relative to Controls for OC[C@@H]1CCCC[C@@H]1CO [1,2-cis-cyclohexanedimethanol]
Out: 0.9

In: Quick one: give measured Fold Induction of Tyrosinase Relative to Controls for "OCC1(CO)CC=CCC1"
Out: 1.4

In: Quick one: give measured Fold Induction of Tyrosinase Relative to Controls for OC1CC2CCC1C2O (stereo not shown)
Out: 0.8

In: Quick one: give measured Fold Induction of Tyrosinase Relative to Controls for "OCC(CO)(CO)CO"
Out: 1.2

In: Quick one: give measured Fold Induction of Tyrosinase Relative to Controls for OCC1(O)CC2CCC1C2 (stereo not shown) [2-hydroxy-2-norbornanemethanol]
Out: 9.2

In: Quick one: give measured Fold Induction of Tyrosinase Relative to Controls for OCC1CCC(CO)CC1 (stereo not shown)
Out: 1.2

###

- Test system: tyrosinase activity in S91 mouse melanoma cells
- PROCEDURE DETAILS: Induction of tyrosinase activity in S91 cells
- CONDITION SET: 0.5 mM (Table 19)
Mark not satisfied for Fold Induction of Tyrosinase Relative to Controls values under 2 X, and satisfied for everything at or above.

In: Given the entry CC1CCC2CC1C2(C)C [(1R)-(−)-α-pinane] , answer whether its Fold Induction of Tyrosinase Relative to Controls meets or surpasses 2 X.
Out: not satisfied

In: Given the entry CC1C(O)CC2CC1C2(C)C (single isomer, unassigned; (-)) [(−)-isopinocampheol] , answer whether its Fold Induction of Tyrosinase Relative to Controls meets or surpasses 2 X.
Out: satisfied

In: Given the entry CC1=CC[C@@H](C(C)(C)O)CC1 [(−)-a-terpineol, (S)-p-menth-1-en-8-ol] , answer whether its Fold Induction of Tyrosinase Relative to Controls meets or surpasses 2 X.
Out: satisfied

In: Given the entry CC1(C)C2CC=C(CO)[C@@H]1C2 [(1R)-(−)-myrtenol, (1R)-2-pinen-10-ol] , answer whether its Fold Induction of Tyrosinase Relative to Controls meets or surpasses 2 X.
Out: satisfied

In: Given the entry CC1CCC2CC1C2(C)C [(1S)-(−)-α-pinane] , answer whether its Fold Induction of Tyrosinase Relative to Controls meets or surpasses 2 X.
Out: not satisfied

In: Given the entry CC1=C[C@H](O)[C@H]2C[C@@H]1C2(C)C (relative stereo) [(S)-cis-verbenol] , answer whether its Fold Induction of Tyrosinase Relative to Controls meets or surpasses 2 X.
Out: not satisfied

In: Given the entry CC1(C)C2CCC1(C)C(O)C2O (stereo not drawn) [2,3-cis/exo-bornanediol] , answer whether its Fold Induction of Tyrosinase Relative to Controls meets or surpasses 2 X.
Out: satisfied

In: Given the entry CC(C)[C@H]1CC[C@H](C)C[C@@H]1O [(1S,2R,5S)-(+)-menthol] , answer whether its Fold Induction of Tyrosinase Relative to Controls meets or surpasses 2 X.
Out: not satisfied

In: Given the entry CC1(C)C2CCC1(C)C(O)C2O (stereo not drawn) [2,3-trans-bornanediol] , answer whether its Fold Induction of Tyrosinase Relative to Controls meets or surpasses 2 X.
Out: satisfied

In: Given the entry CC1CCC(C(C)(C)O)C(O)C1 (stereo not drawn) [cis-p-menthane-3,8-diol] , answer whether its Fold Induction of Tyrosinase Relative to Controls meets or surpasses 2 X.
Out: not satisfied

In: Given the entry CC1(C)C2CCC1(C)C(O)C2 (centres unmarked) , answer whether its Fold Induction of Tyrosinase Relative to Controls meets or surpasses 2 X.
Out: satisfied

In: Given the entry C[C@@H]1CC[C@@H](C(C)(C)O)[C@H](O)C1 (relative stereo) [trans-p-menthane-3,8-diol] , answer whether its Fold Induction of Tyrosinase Relative to Controls meets or surpasses 2 X.
Out: satisfied

In: Given the entry CC1(C)[C@@H]2C[C@H]1[C@@](C)(O)[C@@H](O)C2 (relative stereo) , answer whether its Fold Induction of Tyrosinase Relative to Controls meets or surpasses 2 X.
Out: satisfied
